// data source = patent US20230165865A1

assay info: Cytotoxicity determination in HepG2.2.15 cells (CCK-8 assay)
Assay type: cell-based
run conditions: human, 6 days treatment, CCK-8, highest concentration 100 uM
Threshold 20 µM: CC50 at 6 days strictly smaller gives MET, otherwise NOT MET.

{"compound": "CCOC(=O)C1=C(CN2CCN3C(=S)N(CC(C)(C)C(=O)O)C[C@@H]3C2)NC(c2ncoc2C)=N[C@H]1c1ccc(F)cc1Cl (single isomer, unassigned) [Compound 33A]", "assigned label": "NOT MET"}

Next up:
Q: Lab log: compare recorded CC50 at 6 days with 20 µM; is it strictly lower for CCOC(=O)C1=C(CN2CCN3C(=S)N(CC(C)(C)C(=O)O)CC[C@@H]3C2)NC(c2nccs2)=N[C@H]1c1cccc(F)c1C [Compound 6A] ?
A: MET

----------
assay info: Pharmacokinetic and tissue distribution study via intravenous and oral administration in male C57BL/6 mice
Format: in vivo
run conditions: mice liver, PO
assay endpoint: Liver AUCinf/Dose
Give the figure together with its unit, number first.

Worked cases, answers included:
{"compound": "CCOC(=O)C1=C(CN2CCOCC2)NC(c2nccs2)=NC1c1ccc(F)cc1Br (stereo not shown) [Reference 1, GLS4, reference compound]", "Liver AUCinf/Dose": "69.2 ng·kg·h/g/mg"}
{"compound": "CCOC(=O)C1=C(CN2CCN3C(=O)N(CC(C)(C)C(=O)O)C[C@@H]3C2)NC(c2nccs2)=N[C@H]1c1cccc(F)c1C [Reference 2, reference compound]", "Liver AUCinf/Dose": "2894 ng·kg·h/g/mg"}
{"compound": "CCOC(=O)C1=C(CN2CCN3C(=S)N(CC(C)(C)C(=O)O)CC3C2)NC(c2nccs2)=NC1c1cccc(F)c1Cl (single isomer, unassigned) [Compound 3B]", "Liver AUCinf/Dose": "20884 ng·kg·h/g/mg"}

Next:
Q: For the compound CCOC(=O)C1=C(CN2CCN3C(=S)N(CC(C)(C)C(=O)O)CC3C2)NC(c2nccs2)=N[C@H]1c1cccc(F)c1C (single isomer, unassigned) [Compound 1A] , what Liver AUCinf/Dose is on record?
A: 13733 ng·kg·h/g/mg

----------
Tested on: HepG2.2.15 cells
assay info: Cytotoxicity determination in HepG2.2.15 cells (CCK-8 assay)
Assay type: cell-based
run conditions: 6 days treatment, CCK-8, highest concentration 100 uM
Threshold 50 µM: CC50 strictly smaller gives Y, otherwise N.

Solved entries (count: 3):
{"molecule": "CCOC(=O)C1=C(CN2CCN3C(=S)N(CC4(C(=O)O)CC4)CC3C2)NC(c2nccs2)=N[C@H]1c1cccc(F)c1C (single isomer, unassigned)", "assigned label": "Y"}
{"molecule": "COC(=O)C1=C(CN2CCN3C(=S)N(CC(C)(C)C(=O)O)CC3C2)NC(c2nccs2)=NC1c1ccc(F)cc1Cl (single isomer, unassigned) [Compound 4A]", "assigned label": "N"}
{"molecule": "CCOC(=O)C1=C(CN2CCN3C(=S)N([C@@H]4CC[C@H](C(=O)O)C4)CC3C2)NC(c2nccs2)=N[C@H]1c1cccc(F)c1C (single isomer, unassigned) [Compound 24B]", "assigned label": "Y"}

Q: Lab log: compare recorded CC50 with 50 µM; is it strictly lower for CCOC(=O)C1=C(CN2CCN3C(=S)N(C)C[C@@H]3[C@H]2C(=O)O)NC(c2nccs2)=N[C@H]1c1cccc(F)c1C (single isomer, unassigned) [Compound 35B] ?
A: Y

Q: Ok, now CCOC(=O)C1=C(CN2CCN3C(=S)N([C@H]4CC[C@@H](C(=O)O)C4)CC3C2)NC(c2nccs2)=N[C@H]1c1cccc(F)c1C (single isomer, unassigned) [Compound 24D]
A: Y

----------
System: HepG2.2.15 cells
assay info: Cytotoxicity determination in HepG2.2.15 cells (CCK-8 assay)
Assay type: cell-based
run conditions: 6 days treatment, CCK-8, highest concentration 100 uM
Provide the reported CC50 of each item.
Give bare numbers, in µM.

{"compound": "CCOC(=O)C1=C(CN2CCN3C(=S)N(C[C@@H](C)C(=O)O)C[C@@H]3C2)NC(c2ncoc2C)=NC1c1cccc(F)c1C (single isomer, unassigned) [Compound 32B]", "measurement target": "HepG2.2.15 cells", "measurement": 42.5}

Lab note: each compound below needs its CC50 filled in.
1. CCOC(=O)C1=C(CN2CCN3C(=S)N(CC(C)(C)C(=O)O)CC3C2)NC(c2nccs2)=NC1c1cccc(F)c1Cl (single isomer, unassigned) [Compound 3B]
2. COC(=O)C1=C(CN2CCN3C(=S)N(CC(C)(C)C(=O)O)CC3C2)NC(c2nccs2)=NC1c1ccc(F)cc1Cl (single isomer, unassigned) [Compound 4B]
3. CCOC(=O)C1=C(CN2CCN3C(=S)N(CC(C)(C)C(=O)O)CC3C2)NC(c2nccs2)=N[C@H]1c1cccc(F)c1C (single isomer, unassigned) [Compound 1B]
4. CCOC(=O)C1=C(CN2CCN3C(=S)N(CC(C)C(=O)O)C[C@@H]3C2)NC(c2nccs2)=N[C@H]1c1cccc(F)c1C (single isomer, unassigned) [Compound 27B]

A:
1. 17.8
2. 23.1
3. 22.4
4. 25.3

----------
Test system: HBV
assay info: Anti-viral assay in HepG2.2.15 cells: anti-HBV activity, HBV DNA in culture medium by qPCR
Type: cell-based
run conditions: HepG2.2.15 cells, 6 days treatment, HBV DNA by qPCR; read-out: EC50
assay endpoint: pEC50
Answers are plain numbers, as −log10 of the molar value.

{"compound": "CCOC(=O)C1=C(CN2CCN3C(=S)N(CC(C)C(=O)O)C[C@@H]3C2)NC(c2nccs2)=N[C@H]1c1cccc(F)c1C (single isomer, unassigned) [Compound 27B]", "measurement target": "HBV", "pEC50": 8.59}
{"compound": "CCOC(=O)C1=C(CN2CCN3C(=S)N([C@@H]4CC[C@H](C(=O)O)C4)CC3C2)NC(c2nccs2)=N[C@H]1c1cccc(F)c1C (single isomer, unassigned) [Compound 24B]", "measurement target": "HBV", "pEC50": 9.00}
{"compound": "CCOC(=O)C1=C(CN2CCN3C(=S)N(CC(C)(C)C(=O)O)CC3C2)NC(c2nccs2)=NC1c1cccc(F)c1Cl (single isomer, unassigned) [Compound 3B]", "measurement target": "HBV", "pEC50": 8.77}
{"compound": "CCOC(=O)C1=C(CN2CCN3C(=S)N(CC(C)(C)C(=O)O)CC3C2)NC(c2nccs2)=N[C@H]1c1cccc(F)c1C (single isomer, unassigned) [Compound 1B]", "measurement target": "HBV", "pEC50": 7.37}

Next:
Q: For the compound CCOC(=O)C1=C(CN2CCN3C(=S)N(C)C[C@@H]3[C@H]2C(=O)O)NC(c2nccs2)=N[C@H]1c1cccc(F)c1C (single isomer, unassigned) [Compound 35B] , what pEC50 is on record?
A: 8.96

----------
assay info: Pharmacokinetic study after intravenous and oral administration in male SD rats
Type: in vivo
run conditions: rat plasma, IV, nominal 2 mg/kg
Provide the reported IV AUCinf/Dose of each item.
One number for each entry, in ng·kg·h/mg/mL.

Worked cases, answers included:
{"compound": "CCOC(=O)C1=C(CN2CCN3C(=S)N(CC(C)(C)C(=O)O)CC3C2)NC(c2nccs2)=N[C@H]1c1cccc(F)c1C (single isomer, unassigned)", "IV AUCinf/Dose, ng·kg·h/mg/mL": 1578.1}
{"compound": "CCOC(=O)C1=C(CN2CCN3C(=O)N(CC(C)(C)C(=O)O)C[C@@H]3C2)NC(c2nccs2)=N[C@H]1c1cccc(F)c1C [Reference 2, reference compound]", "IV AUCinf/Dose, ng·kg·h/mg/mL": 254.9}
{"compound": "CCOC(=O)C1=C(CN2CCN3C(=S)N(CC(C)(C)C(=O)O)CC3C2)NC(c2nccs2)=NC1c1cccc(F)c1Cl (single isomer, unassigned)", "IV AUCinf/Dose, ng·kg·h/mg/mL": 771.6}

Q: For the compound COC(=O)C1=C(CN2CCN3C(=S)N(CC(C)(C)C(=O)O)CC3C2)NC(c2nccs2)=NC1c1ccc(F)cc1Cl (single isomer, unassigned) , what IV AUCinf/Dose is on record?
A: 594.3

----------
assay info: Pharmacokinetic and tissue distribution study via intravenous and oral administration in male C57BL/6 mice
Format: in vivo
run conditions: male, C57BL/6, mouse; mice plasma, PO, dose per compound in table (5.28-9.95 mg/kg)
assay endpoint: Cmax (ng/mL)
Answers are plain numbers, in ng/mL.

Worked cases, answers included:
{"compound": "CCOC(=O)C1=C(CN2CCN3C(=O)N(CC(C)(C)C(=O)O)C[C@@H]3C2)NC(c2nccs2)=N[C@H]1c1cccc(F)c1C [Reference 2, reference compound]", "output unit": "ng/mL", "Cmax": 733}
{"compound": "CCOC(=O)C1=C(CN2CCN3C(=S)N(CC(C)(C)C(=O)O)CC3C2)NC(c2nccs2)=NC1c1cccc(F)c1Cl (single isomer, unassigned)", "output unit": "ng/mL", "Cmax": 2340}

Next:
Q: For the compound CCOC(=O)C1=C(CN2CCN3C(=S)N(CC(C)(C)C(=O)O)CC3C2)NC(c2nccs2)=N[C@H]1c1cccc(F)c1C (single isomer, unassigned) , what Cmax is on record?
A: 2350
